protocol summary: Acute toxicity (Table 6)
Type: in vivo
run parameters: mouse, in vivo, sc; subcutaneous, mice, Litchfield-Wilcoxon; read-out: LD50 (50% lethal dose)
measure: LD50 at 240 h

Input line: Data request, read-out LD50 at 240 h, for Cc1cc(C(=O)c2ccccc2)c(C)n1CC(C)O (stereo not shown)
Output line: > 4000 mg/kg

* * *

protocol summary: Acute toxicity (Table 6)
Type: in vivo
run parameters: mouse, in vivo, ip; intraperitoneal, mice, Litchfield-Wilcoxon; read-out: LD50 (50% lethal dose)
measure: LD50 at 240 h (mg/kg)
Answers are plain numbers, in mg/kg.

Input line: I am curious: what LD50 at 240 h value has been reported for Cc1cc(C(=O)c2ccccc2)c(C)n1CC(C)O (stereo not shown) ?
Output line: 110
